Assay: NCI Yeast Anticancer Drug Screen. Data for the sgs1 mgt1 strain (AID 161);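 further: 0% = growth of cultures given vehicle only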
Settings: S. cerevisiae sgs1 mgt1 strain, at 50.0 µM, active compounds read high
Compounds without any hit were thinned out: in the full panel of roughly 79,000, 15% have a hit.
# growth inhibition annotations
Please give a number only; it is taken to be in %.

Look over these answered cases.
MOLECULE | VALUE_TYPE | REPORTED_VALUE
Cn1nnc(C(N)=O)n1 | growth inhibition | -15.8
O=NC1C(=O)NC(=O)NC1=O | growth inhibition | 3.45
CCOC(=O)C(C[Si](C)(C)C)P(=O)(OCC)OCC (stereo unspecified) | growth inhibition | -58.4
CN(C)CCNC(=O)c1ccc(N(CCCl)CCCl)c([N+](=O)[O-])c1[N+](=O)[O-] | growth inhibition | 30.8

Using the record for O=S(=O)(O)C1CCC(O)C2[N-]CCCC21.O=S(=O)(O)C1CCC(O)C2[N-]CCCC21.[Ni+2] (stereo unspecified) , report its growth inhibition.
27.9

Reported growth inhibition, molecule CC(C)=CCN=C(N)N : ____
-17.3

Find the recorded growth inhibition belonging to O=C(c1ccc(Cl)cc1)N1CCOCC1 and report it.
-7.6

Request the reported growth inhibition associated with CCC(=O)[O][Sn]([CH3])([CH3])[O][Sn]([CH3])([CH3])[O]C(=O)CC
-28.8

Quick check: growth inhibition of CC(=O)NC1C([Se][As](C)C)OC(COC(C)=O)C(OC(C)=O)C1OC(C)=O (stereo unspecified) ?
23.6

Reported growth inhibition, molecule CSCCC(NC(=O)C(Cc1ccccc1)NC(=O)CNC(=O)CNC(=O)C(N)Cc1ccc(O)cc1)C(=O)O (stereo unspecified) : ____
-6.45

Returns the measured growth inhibition for the input molecule. Input: C[C@]12CC[C@H]3[C@@H](CCC4=CC(=O)CC[C@@]43C)[C@]1(O)CC[C@]2(O)C(=O)CO
-30.4

Data request, read-out growth inhibition, for CCC1CC[Si](C)(C)CC12C(=O)NC(=O)NC2=O (stereo unspecified)
11.5

Reported growth inhibition, molecule C1CN([PH+](N2CC2)N2CC2)CCO1.C1CN([PH+](N2CC2)N2CC2)CCO1.[Cl][Pt][Cl] : ____
10

Can you share its growth inhibition? I mean this molecule: C=CCP(c1ccccc1)c1ccccc1
-8.65

Which growth inhibition value is on record for C1CCC(N2CSC3CCCCC32)CC1 (stereo unspecified) ?
4.35

For the molecule CCNCCc1ccc(N)cc1 , what growth inhibition is on record?
0.8

Need growth inhibition, item Cc1nc2cccc(F)c2c(=O)n1-c1nnc(C(F)(F)F)s1
16.5

====

Assay: NCI Yeast Anticancer Drug Screen. Data for the sgs1 mgt1 strain (AID 161);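 further: 0% = growth of cultures given vehicle only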
Settings: S. cerevisiae sgs1 mgt1 strain, at 50.0 µM, active compounds read high
Compounds without any hit were thinned out: in the full panel of roughly 79,000, 15% have a hit.
VALUE_TYPE: growth inhibition (%)
Return type: number; implicit unit %.

Solved entries (count: 10):
COMPOUND | VALUE_TYPE | REPORTED_VALUE
CCCCCC(=O)c1c(O)cc2c(c1O)C(=O)c1c(O)cc(O)cc1C2=O | growth inhibition | 6.1
CCC(CN)c1ccccc1 (stereo not drawn) | growth inhibition | 2.75
CC1(C)N=C(N)N=C(N)N1c1ccc(CCc2ccc(S(=O)(=O)F)cc2Cl)c(Cl)c1 | growth inhibition | 99.7
NC1Cc2cc(O)ccc2C1=O (stereo not drawn) | growth inhibition | -3.35
O=Cc1ccccc1.[C-]#[O+].[C-]#[O+].[C-]#[O+].[Cr] | growth inhibition | 1.8
CCC[CH2][Sn]([Br])([c]1ccccc1)[c]1ccccc1 | growth inhibition | 99.4
CC(C)N(C(C)C)P(OCCC#N)OC1CC(n2cnc3c(=O)[nH]cnc32)OC1COC(=O)NCCCCCCNC(=O)OC(C)(C)c1ccc(-c2ccccc2)cc1 (stereo not drawn) | growth inhibition | -27
COC(=O)C(O)(c1ccccc1)C1CCCC1 (stereo not drawn) | growth inhibition | -10.6
Cc1cccc(C#N)c1 | growth inhibition | 1.2
NS(=O)(=O)c1ccc(N=Nc2ccc([As](=O)(O)O)cc2)cc1 | growth inhibition | 18.6

Which growth inhibition reading was recorded for the compound ClCc1cccnc1 ?
5.25

What value of growth inhibition has been recorded for this entry: O=C(CC(=O)C(F)(F)F)c1cccs1.O=C(CC(=O)C(F)(F)F)c1cccs1.O=C(CC(=O)C(F)(F)F)c1cccs1.[Tb]
24.6

Give its growth inhibition value. Item: CCCCC[CH2][Sn](=[O])[CH2]CCCCC
-9.4

Return reported growth inhibition; argument: CC(NC(=O)c1ccccc1)N(C)[N+](=O)[O-] (stereo not drawn)
2.5

What does the record list as growth inhibition for Nc1cc(N=Nc2ccc([As](=O)(O)O)cc2)ccc1O ?
-5.2

I have this compound here, COc1oc(C2C/C(=C/C(C)=C/C(C)=C/C(C)=C/c3ccc([N+](=O)[O-])cc3)CO2)c(C)c(=O)c1C (stereo not drawn) , and I need its recorded growth inhibition.
-9.4

Reported growth inhibition for O=[N+]([O-])NC1=NCCN1CCCl : what is it?
-4.6

Give its growth inhibition value. Item: CC(=O)OC1CCC2(C)C(CCC3C2CCC2(C)C3CC(CC(=O)O)C2OC(C)=O)C1 (stereo not drawn)
7.3

Entry C/C=C/C(C)C1(CCC)C(=O)NC(=O)NC1=O (stereo not drawn) has what growth inhibition?
-3.8

Give its growth inhibition value. Item: CO[C@@]12[C@@H]3N[C@@H]3CN1C1=C(C(=O)C(Nc3ccc(O)cc3C)=C(C)C1=O)[C@@H]2COC(N)=O
20

For the compound COP(=O)(OC)C(O)C(Br)(Br)Br (stereo not drawn) , what growth inhibition is on record?
45.2

I am curious: what growth inhibition value has been reported for O=C1C=CC(=O)N1CO ?
9

Please look up its growth inhibition: NC(=O)NC(O)C(Cl)(Cl)Cl (stereo not drawn)
-24.9

Consider the compound shown here: C=C[C](=C)[Pb]([CH2]C)([CH2]C)[CH2]C What is its recorded growth inhibition?
-10.5

Query: growth inhibition; subject: O=Cc1ccccc1O.O=Cc1ccccc1O.[Cu]
88.9

Report growth inhibition for NC(CCC(=O)NC(CSc1ccc([N+](=O)[O-])cc1[N+](=O)[O-])C(=O)NCC(=O)O)C(=O)O (stereo not drawn) please.
12.2

Consider the compound CC(C)OP(=O)(OC(C)C)C(N(C)C)P(=O)(OC(C)C)OC(C)C.[Cl][Sn]([Cl])([Cl])[c]1ccccc1 and give its measured growth inhibition.
2.1

So what does the record say about growth inhibition for CCC(=O)c1ccc(N)cc1 ?
2.15

Could you tell me which growth inhibition is on file for N#Cc1ccc(C(Cl)(Cl)Cl)cc1 ?
-5.8

Would you mind telling me what growth inhibition value was observed for CCC(=O)OC1(c2ccccc2)CCN(CCC(=O)c2ccccc2)CC1 ?
36.8

Please give the measured growth inhibition for this compound: C#CCn1c(I)cc2c(c1=O)COC(=O)[C@]2(O)CC
19.6

For the compound shown here, O=Cc1ccccc1O.[Nd] , give the reported growth inhibition.
17.2

growth inhibition lookup needed for Nc1ccn(C2OC(COP(=O)(O)Oc3ccccc3)C(O)C2O)c(=O)n1 (stereo not drawn) , thanks.
17.8

====

Assay: NCI Yeast Anticancer Drug Screen. Data for the mec2-1 strain (AID 157)
Settings: S. cerevisiae mec2-1 strain, at 50.0 µM, active compounds read high
About 79,000 compounds went through this panel and 15% of them were active in at least one assay; those are over-represented in the sample as a whole.
VALUE_TYPE: growth inhibition (%)
Lab book: enter the figure in %, no units written.

MOLECULE | UNIT_ABBREVIATION | growth inhibition
COc1cc2c(cc1OC)C13CCN4C=C5CCOC6CC(=O)N2C1C6C5CC43 (stereo not drawn) | % | -8.7
COCC(C)OC(=O)Cc1ccccc1 (stereo not drawn) | % | -8.2
C=C(CC(=O)O)C(=O)O | % | 2.8
CC(O)CN(CCN(CC(C)O)CC(C)O)CC(C)O.[Cl-].[Zn+2] (stereo not drawn) | % | 9.25

Returns the measured growth inhibition for the input molecule. Input: O=[As](O)(O[As](=O)(O)c1ccccc1)c1ccccc1
18.1

Which value of growth inhibition has been reported for CCC(=O)C(c1ccccc1)(c1ccccc1)C(C)CN(C)C (stereo not drawn) in the records?
-9.2

Entry under review: CCCCCCCCCCCCCCCC[As](CCCCCCCCCCCCCCCC)SCC1OC(OC(C)=O)C(OC(C)=O)C(OC(C)=O)C1OC(C)=O (stereo not drawn) . Reported growth inhibition?
3.45

What does the data say about its growth inhibition? Entry: OCCNC1CCCCC1
-1.65

Which growth inhibition value is on record for O=[As](O)(O)CC(Br)CBr (stereo not drawn) ?
12

# lookup: growth inhibition of CCC[As](=O)(O)CC[As](=O)(O)CCC
34.2

Returns the measured growth inhibition for the input molecule. Input: O=C(CC(=O)C(F)(F)F)c1cccs1.O=C(CC(=O)C(F)(F)F)c1cccs1.O=C(CC(=O)C(F)(F)F)c1cccs1.[Gd]
26.2

Can you share its growth inhibition? I mean this molecule: CCCCCCCCCSCP(=O)(OCC)OCC
99.8

What does the data say about its growth inhibition? Entry: Cc1cc2[nH]c3c(C#N)c(OC(=O)N(C)C)c(-c4ccccc4)c(=O)n3c2cc1C
9.5
